- target-under-test: KIF2C (Homo sapiens, UniProt Q99661)
- Construct: KIF2C (216-598 a.a.); 6xHis (C)
- Sequence (Q99661 216-598): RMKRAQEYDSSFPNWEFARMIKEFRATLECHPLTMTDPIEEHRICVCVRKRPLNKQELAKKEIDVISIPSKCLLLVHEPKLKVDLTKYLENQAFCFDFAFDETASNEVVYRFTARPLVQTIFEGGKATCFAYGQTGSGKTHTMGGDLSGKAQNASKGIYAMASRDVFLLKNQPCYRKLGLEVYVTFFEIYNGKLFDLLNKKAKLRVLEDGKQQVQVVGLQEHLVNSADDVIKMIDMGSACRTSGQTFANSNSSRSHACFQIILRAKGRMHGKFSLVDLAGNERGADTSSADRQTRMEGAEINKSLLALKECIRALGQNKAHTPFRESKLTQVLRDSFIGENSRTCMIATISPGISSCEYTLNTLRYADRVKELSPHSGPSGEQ
- assay-remarks: In vitro validation: KIF2C kinesin activity, malachite green-based phosphate colorimetric assay
- experimental-parameters: concentration that inhibits 50% of KIF2C activity
metric: EC50

compound	measured
CCN1CCN(C(=O)COc2ccc(/C=c3\sc4n(c3=O)C(c3ccc(N(C)C)cc3)C(C(=O)OC(C)(C)C)=C(C)N=4)cc2)CC1 (stereo not drawn) [Compound 148]	< 50 µM
CCN1CCN(C(=O)COc2ccc(/C=c3\sc4n(c3=O)C(c3ccc(Cl)cc3)C(C(=O)OC(C)C)=C(C)N=4)cc2)CC1.O=C(O)/C=C\C(=O)O (stereo not drawn) [7S9 (133), maleate]	< 50 µM
COc1ccc(C2C(C(=O)OC(C)C)=C(C)N=c3s/c(=C\c4ccc(OCC(=O)N5CCN(C)CC5)cc4)c(=O)n32)cc1 (stereo not drawn) [42S0 (61)]	> 100 µM
CCN1CCN(C(=O)COc2ccc(/C=c3\sc4n(c3=O)C(c3ccc(Cl)cc3)C(C(=O)OC(C)C)=C(C)N=4)cc2)CC1 (stereo not drawn) [Compound 13S0]	50 to 100 µM
CC1=C(C(=O)OC(C)C)C(c2ccc(Cl)cc2)n2c(s/c(=C\c3ccc(OCCCO)cc3)c2=O)=N1 (stereo not drawn) [39S0 (118)]	> 100 µM
CCOC(=O)C1=C(C)N=c2s/c(=C\c3ccc(OCC(=O)N4CCN(C)CC4)cc3)c(=O)n2C1c1ccc(N(C)C)cc1 (stereo not drawn) [Compound 143]	50 to 100 µM

Data origin, for the record: patent US20250129101A1
